A compilation of IC50 values for VPS34 (Homo sapiens) from the published literature.

Cc1nccc(Nc2cc(-c3cnc(C)c4[nH]ccc34)ccn2)n1
10 to 50 nM
CC(=O)Nc1cc(-n2cc(-c3nc[nH]n3)c(-c3ccccc3Cl)n2)c(Br)cn1
150 to 1000 nM
O=S(=O)(C1CC1)n1ccc2c(-c3ccnc(Nc4ccncn4)c3)cncc21
10 to 50 nM
CC(=O)Nc1cc(-c2cc(-c3nnc[nH]3)n(-c3ccccc3Cl)n2)ccn1
100 to 1000 nM
COC(=O)Nc1cc(-c2cncc3c2ccn3S(=O)(=O)N(C)C)ccn1
< 10 nM

## Task What IC50 appears in the records for this compound with VPS34 (Homo sapiens)? `CC(=O)Nc1cc(-c2cc(C(N)=O)n(-c3ccc(N)cc3Cl)c2)c(C)cn1`
Sequence (Q8NEB9 whole entry): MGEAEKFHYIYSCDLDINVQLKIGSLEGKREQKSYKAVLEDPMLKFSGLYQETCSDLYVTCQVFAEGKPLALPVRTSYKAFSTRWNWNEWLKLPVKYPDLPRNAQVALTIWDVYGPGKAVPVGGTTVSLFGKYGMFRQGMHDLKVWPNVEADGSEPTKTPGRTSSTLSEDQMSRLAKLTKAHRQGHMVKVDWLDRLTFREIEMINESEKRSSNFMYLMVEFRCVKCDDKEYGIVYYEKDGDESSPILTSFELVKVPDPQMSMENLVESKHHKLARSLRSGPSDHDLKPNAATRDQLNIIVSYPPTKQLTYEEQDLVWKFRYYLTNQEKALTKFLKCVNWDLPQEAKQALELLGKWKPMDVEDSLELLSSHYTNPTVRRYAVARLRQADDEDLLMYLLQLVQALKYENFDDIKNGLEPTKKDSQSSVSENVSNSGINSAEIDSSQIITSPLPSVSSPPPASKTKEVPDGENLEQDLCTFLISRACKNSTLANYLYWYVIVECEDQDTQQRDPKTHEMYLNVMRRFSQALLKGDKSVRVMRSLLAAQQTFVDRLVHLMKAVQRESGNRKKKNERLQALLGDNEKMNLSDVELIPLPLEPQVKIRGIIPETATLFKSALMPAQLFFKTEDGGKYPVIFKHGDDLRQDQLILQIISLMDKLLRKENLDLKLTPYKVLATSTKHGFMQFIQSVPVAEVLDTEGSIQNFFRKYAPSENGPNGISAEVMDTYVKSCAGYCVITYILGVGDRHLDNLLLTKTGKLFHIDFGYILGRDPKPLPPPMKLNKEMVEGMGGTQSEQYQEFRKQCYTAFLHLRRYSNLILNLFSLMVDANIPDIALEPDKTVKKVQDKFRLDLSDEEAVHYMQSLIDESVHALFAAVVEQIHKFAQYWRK
## Result < 100 nM

## Task One more compound: `CC(=O)Nc1cc(-n2cc(-c3nc[nH]n3)c(-c3ccc(C(F)(F)F)cc3Cl)n2)c(C)cn1`
## Result 150 to 1000 nM

## Task One more compound: `O=c1cc(N2CCOCC2)nc2n1CC[C@@H](C(F)(F)F)N2CCOCC(F)(F)F`
## Result 10 to 100 nM
